Target: P450cam active site mutant Y96V (also C334A) (Pseudomonas putida, UniProt P00183, C335A/Y97V)
Construct: reconstituted with putidaredoxin and putidaredoxin reductase
Sequence (P00183 2-415 Y97V/C335A): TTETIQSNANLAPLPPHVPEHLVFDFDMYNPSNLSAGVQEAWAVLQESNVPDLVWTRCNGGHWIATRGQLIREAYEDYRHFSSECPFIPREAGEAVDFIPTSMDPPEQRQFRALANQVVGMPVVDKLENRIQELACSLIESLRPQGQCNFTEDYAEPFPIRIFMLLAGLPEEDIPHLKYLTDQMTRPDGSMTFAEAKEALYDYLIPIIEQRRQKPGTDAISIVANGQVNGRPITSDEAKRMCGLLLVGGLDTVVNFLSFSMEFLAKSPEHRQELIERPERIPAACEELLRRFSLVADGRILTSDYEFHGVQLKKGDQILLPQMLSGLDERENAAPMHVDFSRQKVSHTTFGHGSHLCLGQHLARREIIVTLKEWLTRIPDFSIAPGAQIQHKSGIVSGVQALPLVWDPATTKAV
Sequence (P00259 whole entry, further chain): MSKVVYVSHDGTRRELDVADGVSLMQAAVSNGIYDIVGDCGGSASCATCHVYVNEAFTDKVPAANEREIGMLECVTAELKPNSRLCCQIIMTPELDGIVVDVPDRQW
Sequence (P16640 whole entry, further chain): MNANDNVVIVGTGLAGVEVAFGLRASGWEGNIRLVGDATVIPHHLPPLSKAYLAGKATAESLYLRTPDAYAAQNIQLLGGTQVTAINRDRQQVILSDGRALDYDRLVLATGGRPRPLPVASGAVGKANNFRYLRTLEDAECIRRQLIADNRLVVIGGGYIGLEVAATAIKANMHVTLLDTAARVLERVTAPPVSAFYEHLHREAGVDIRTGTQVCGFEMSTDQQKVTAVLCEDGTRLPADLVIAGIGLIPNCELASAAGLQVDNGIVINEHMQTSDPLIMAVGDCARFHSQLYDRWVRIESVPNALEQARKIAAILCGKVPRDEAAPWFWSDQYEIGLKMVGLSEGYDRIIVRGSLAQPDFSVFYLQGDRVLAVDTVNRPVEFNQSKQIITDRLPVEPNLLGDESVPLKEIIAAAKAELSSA
Assay type: biochemical, P. putida
Details: substrate cyclohexylbenzene; label = product
Experimental: A buffered solution (50 mM Tris.HCI, pH 7.4), typically 3 ml in volume, containing 10 uM putidaredoxin, 2 uM putidaredoxin reductase, 1 uM cytochrome P-450cam mono-oxygenase (wild-type or mutant), 200 mM KCI, 50 ug/ml bovine liver catalase (Sigma), and 1 mM target organic compound such as cyclohexylbenzene (added as a 0.1 M stock in ethanol) was preincubated at 30° C. for 5 minutes. […] The chloroform layer was analyzed by gas chromatography. […]
Recorded Products (%) Y96V for the following molecules
Value and unit, in that order.

Known results for molecules:
OC1CCCC(c2ccccc2)C1 (stereo not shown) [L or D 3-ol]: 39%
O[C@H]1CC[C@@H](c2ccccc2)CC1 [Cis-4-ol]: 23%
O[C@H]1CC[C@H](c2ccccc2)CC1 [Trans-4-ol]: 10%

Proceeding to the next molecule to report its Products (%) Y96V.
(Q) Record request: Products (%) Y96V value, item OC1CCCC(c2ccccc2)C1 (single isomer, unassigned) [3-ol]
(A) 28%

----------
target: P450cam Mutant Y96A (Pseudomonas putida, UniProt P00183, C335A/Y97A); format: binding, P. putida
Sequence (P00183 2-415 Y97A/C335A, one chain of several): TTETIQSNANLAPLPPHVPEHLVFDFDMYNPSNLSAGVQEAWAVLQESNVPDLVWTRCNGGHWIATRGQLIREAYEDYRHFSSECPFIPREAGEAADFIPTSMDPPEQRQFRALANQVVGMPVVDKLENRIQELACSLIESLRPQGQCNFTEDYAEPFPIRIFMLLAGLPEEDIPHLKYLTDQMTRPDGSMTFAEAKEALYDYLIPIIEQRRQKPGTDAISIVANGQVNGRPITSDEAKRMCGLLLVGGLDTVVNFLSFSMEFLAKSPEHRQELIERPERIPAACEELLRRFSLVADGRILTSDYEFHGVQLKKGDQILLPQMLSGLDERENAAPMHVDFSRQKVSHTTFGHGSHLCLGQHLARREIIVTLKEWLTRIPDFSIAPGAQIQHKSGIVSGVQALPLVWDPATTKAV
Assign labels as follows, please: label 1 for Mutant Y96A Vs DTT below 20; label 0 for Mutant Y96A Vs DTT equal to or exceeding 20.

Examples from the recorded data:
C=CC(=C)C [Isoprene]: label 1
c1ccc(-c2ccccc2)cc1 [Biphenyl]: label 0
C=Cc1ccccc1 [Styrene]: label 0
CCCCCCCCC [n-Nonane]: label 0

(Q) Criterion: Mutant Y96A Vs DTT strictly below 20. Is it met by C1=Cc2ccccc2CC1 [1,2-Dihydronaphthalene] ?
(A) label 0

(Q) Next: CCCCCCCC [n-Octane]
(A) label 0

(Q) Same thing, different compound: CCCCCCCCCCCC [n-Dodecane]
(A) label 1

(Q) Then this compound: c1ccc2c(c1)CCCC2 [1,2,3,4-Tetrahydro naphthalene]
(A) label 0

(Q) How about CCCCCCCCCCCCOS(=O)(=O)O [SDS] ?
(A) label 0

(Q) And what about the compound O=C1c2ccccc2-c2ccccc21 [9-Fluorenone] ?
(A) label 1

----------
biological target: P450cam Mutant Y96A (Pseudomonas putida, UniProt P00183, C335A/Y97A); format: binding, P. putida; conditions: -- = no shift, nd = not determined
Friendly reminder: Mutant Y96A ΔSpin high/low below 30 is 1 (yes), at or above is 0 (no).

Some solved cases for reference:
CCCCCCCCC: 0 (no)
c1ccc(Oc2ccccc2)cc1: 1 (yes)
c1ccc2c(c1)ccc1ccccc12: 1 (yes)
CCC(=O)Oc1cccc2ccccc12 [1-Naphthylpropionate]: 1 (yes)
C1=CC2C3C=CC(C3)C2C1 (stereo not shown): 0 (no)

(Q) Dear colleague, could you confirm whether Mutant Y96A ΔSpin high/low of "c1ccc(COCc2ccccc2)cc1" falls below 30? Thanks.
(A) 0 (no)

----------
target: P450cam active site mutant Y96F (also C334A) (Pseudomonas putida, UniProt P00183, C335A/Y97F); construct: reconstituted with putidaredoxin and putidaredoxin reductase; type: biochemical, P. putida; conditions: substrate 2-methyl hexane; label = product
Sequence (P16640 whole entry): as the sequence (P16640 whole entry, further chain) above
Sequence (P00183 2-415 Y97F/C335A): as the sequence (P00183 2-415 Y97V/C335A) above, with V96F counted along it
Sequence (P00259 whole entry, further chain): as the sequence (P00259 whole entry, further chain) above
parameter-measured: Products(%) Y96F
Report only the number, with the unit % understood.

Known results for compounds:
CC(=O)CCC(C)C: 16
CCCC(O)C(C)C (stereo not shown): 7
CCCCC(C)(C)O: 72

Here is another compound to look at.
(Q) Report Products(%) Y96F for CC(C)CCC(C)O (stereo not shown) please.
(A) 5

Each recorded value in this set is attributed to patent US6117661A.
